The measurements presented in this section are drawn from PubChem BioAssay (NCI).

Test system: SW-620 colon
Assay summary: NCI-60 one-dose screen, 48 h (100 = growth as untreated, 0 = no growth, -100 = all killed)
Stated conditions: 10 µM unless noted
This is part of a sample that, as a whole, favours compounds with a hit. Of some 83,000 tested, about 20% had one in any assay.
Think of 30% as a floor: if growth stands on it or above, it is TRUE; beneath it, FALSE.

INPUT: Kindly determine if growth recorded for COc1ccccc1C(=O)Nc1cccc(NC(=O)c2ccoc2C)c1 is above or exactly 30%.
OUTPUT: FALSE

----------
Test system: HCT-15 colon
Assay summary: NCI-60 one-dose screen, 48 h (100 = growth as untreated, 0 = no growth, -100 = all killed)
Stated conditions: 10 µM unless noted
This is part of a sample that, as a whole, favours compounds with a hit. Of some 83,000 tested, about 20% had one in any assay.
// classify: if (growth < 10%) criterion met else criterion not met

Example entries and their recorded answers appear below.
COc1ccc(CCN2C(=O)/C(=C/c3ccc(C4Oc5ccccc5C5CC(c6ccccc6)=NN54)cc3)SC2=S)cc1 (stereo not given) : criterion not met
Cc1ccc(-c2nc(/C=C3/C(=O)Nc4ccc(F)cc43)c3ccccn23)cc1 : criterion met
C=C(C)[C@@H]1CC[C@]2(C(N)=O)CC[C@]3(C)[C@H](CC[C@@H]4[C@@]5(C)CC[C@H](OCCC#N)C(C)(C)[C@@H]5CC[C@]43C)[C@@H]12 : criterion not met
COc1ccc(-c2nn(-c3ccccc3)cc2/C=C/C(=O)NNC(=O)Nc2ccc(C)cc2)cc1 : criterion not met

INPUT: Hello, I'm reviewing records and need to know if growth of CCc1ccc(CCC(=O)Nc2ncc(Cc3cc(Cl)ccc3Cl)s2)o1 is below 10%. Could you check?
OUTPUT: criterion not met

----------
Test system: NCI/ADR-RES ovarian
Assay summary: NCI-60 one-dose screen, 48 h (100 = growth as untreated, 0 = no growth, -100 = all killed)
Stated conditions: 10 µM unless noted
Compounds without any hit were thinned out: in the full panel of roughly 83,000, 20% have a hit.
Entries get a class label from measured growth. See ranges: low (below 10%), medium (10% to below 70%), high (70% or more)

Example entries and their recorded answers appear below.
O=C(O)c1ccc(-c2ccc(/C=N/Nc3nc(Nc4ccccc4)nc(N4CCCCC4)n3)o2)cc1 : medium
CCNc1nc(O)c(/C=C2\C=Nc3ncccc32)s1 : medium
C=C1CC[C@@H]2[C@](C)(COC(C)=O)[C@H](OC(C)=O)CC[C@@]2(C)[C@@H]1CC(Nc1ccc(S(=O)(=O)NC(C)=O)cc1)C1=CCOC1=O (some centres not stated) : medium
COc1cc(/C=N/Nc2ccc(Br)cc2)cc(OC)c1OC : medium
CN1C(=O)/C(=C/c2ccc(C(=O)Nc3ncc(Cc4cccc(Cl)c4)s3)cc2)SC1=S : medium
N#Cc1c(-c2ccccc2)nc(SCC(O)CN2CCOCC2)nc1N1CCOCC1 (configuration not stated) : high
Cc1ccc(S(=O)(=O)Oc2ccc3sc4cccc(NCCN(C)C)c4c(=O)c3c2)cc1 : low
Cc1ccc(N2C(=O)CCC2=O)cc1 : high
O=C(CSc1nc(-c2ccccc2)cc(=O)[nH]1)Nc1nc(-c2ccccc2)cs1 : high
Cc1ccc(-c2nc(N3CCNCC3)c3oc(-c4ccc(C)cc4)nc3n2)cc1 : low

Turning now to a further molecule:
INPUT: Using the reported growth, which band applies to COc1cccc(NCc2nnc(Nc3ccc(Cl)cc3)c3ccccc23)c1 ?
OUTPUT: low
